# targetDesc: equine FcRn (large alpha subunit p51) in complex with equine beta-2-microglobulin (equine) (UniProt F6XZ61)
# assayProtocol: SPR (Biacore), pH 6
Reported pKd values for the following binders.
Here pKd is given on a logarithmic scale as minus log10 of the concentration in mol/L.

1) equine IgG7 A426M mutant (antibody, part only; not given: variable domains, not shown: another chain or arm of the molecule) constant: ASTTAPKVFPLASHSAATSGSTVALGCLVSSYFPEPVTVSWNSGALTSGVHTFPSVLQSSGLYSLSSMVTVPASSLKSQTYICNVAHPASSTKVDKKIVIKECGGCPTCPECLSVGPSVFIFPPKPKDVLMISRTPTVTCVVVDVGHDFPDVQFNWYVDGVETHTATTEPKQEQNNSTYRVVSILAIQHKDWLSGKEFKCKVNNQALPAPVQKTISKPTGQPREPQVYVLAPHRDELSKNKVSVTCLVKDFYPTDIDIEWKSNGQPEPETKYSTTPAQLDSDGSYFLYSKLTVETNRWQQGTTFTCMVMHEALHNHYTEKSVSKSPGK : 7.64

Query: Param item = equine IgG7 Y436A mutant (antibody, part only; not given: Variable domains, not shown: another chain or arm of the molecule) constant: ASTTAPKVFPLASHSAATSGSTVALGCLVSSYFPEPVTVSWNSGALTSGVHTFPSVLQSSGLYSLSSMVTVPASSLKSQTYICNVAHPASSTKVDKKIVIKECGGCPTCPECLSVGPSVFIFPPKPKDVLMISRTPTVTCVVVDVGHDFPDVQFNWYVDGVETHTATTEPKQEQNNSTYRVVSILAIQHKDWLSGKEFKCKVNNQALPAPVQKTISKPTGQPREPQVYVLAPHRDELSKNKVSVTCLVKDFYPTDIDIEWKSNGQPEPETKYSTTPAQLDSDGSYFLYSKLTVETNRWQQGTTFTCAVMHEALHNHATEKSVSKSPGK ; retrieve measured pKd.
Result: 7.88
